- TESTED_TARGET: human glucagon receptor (human, UniProt P47871 26-477)
- Sequence (P47871 26-477): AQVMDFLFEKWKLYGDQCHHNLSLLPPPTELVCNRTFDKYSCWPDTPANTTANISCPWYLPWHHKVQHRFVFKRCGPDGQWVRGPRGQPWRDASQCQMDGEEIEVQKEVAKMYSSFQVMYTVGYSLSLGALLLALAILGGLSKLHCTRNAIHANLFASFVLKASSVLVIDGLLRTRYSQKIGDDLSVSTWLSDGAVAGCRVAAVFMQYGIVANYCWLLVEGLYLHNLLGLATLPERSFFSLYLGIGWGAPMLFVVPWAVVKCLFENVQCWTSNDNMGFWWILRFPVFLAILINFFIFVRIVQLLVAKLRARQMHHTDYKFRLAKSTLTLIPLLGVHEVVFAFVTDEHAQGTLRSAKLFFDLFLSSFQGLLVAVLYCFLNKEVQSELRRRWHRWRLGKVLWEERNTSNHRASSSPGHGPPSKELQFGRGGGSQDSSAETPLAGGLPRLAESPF
- MEASUREMENT_NOTES: cell-based or functional assay
Numbered stars: 1 amine (or outer) side, 2 acyl side, 3 side chain; on linkers, the order of the positions; unused ones are H or OH. Square brackets hold non-standard residues; d marks the D form. Side chains are listed from the residue outwards. Ends that are not written are not given here. * marks the point of attachment. γGlu = O=C(O)[C@H](CCC(=O)[*:2])N[*:1]; Stearoyl = CCCCCCCCCCCCCCCCCC(=O)*; Palmitoyl = CCCCCCCCCCCCCCCC(=O)*; AEEA = NCCOCCOCC(=O)O; Aib = CC(C)(N)C(=O)O
PARAMETER_MEASURED: EC50 hGlucagon-R (cAMP formation) (nM)
Response body: numeric value in nM, unit text excluded.

Worked examples follow.
>>> df
                                     binder                 parameter_measured  result_unit  meas_value
0  H[dS]HGTFTSDLSKQK([γGlu-γGlu-Palmitoyl])EEEAVRLFIEWLKAGGPSSGAPPPS-NH2 [SEQ ID NO: 13]  EC50 hGlucagon-R (cAMP formation)           nM      0.0225
1  H-H[Aib]HGTFTSDLSKQK([AEEA-AEEA-γGlu-Stearoyl])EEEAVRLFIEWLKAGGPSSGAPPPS-NH2 [SEQ ID NO: 28]  EC50 hGlucagon-R (cAMP formation)           nM      0.0171
2  H-H[Aib]HGTFTSDLSKQK([AEEA-AEEA-γGlu-Palmitoyl])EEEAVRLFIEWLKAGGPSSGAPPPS-NH2 [SEQ ID NO: 27]  EC50 hGlucagon-R (cAMP formation)           nM      0.0234
3  H-H[Aib]HGTFTSDLSKQK([AEEA-AEEA-AEEA-Stearoyl])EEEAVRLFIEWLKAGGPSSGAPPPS-NH2 [SEQ ID NO: 29]  EC50 hGlucagon-R (cAMP formation)           nM      0.0179
4  H[Aib]HGTFTSDLSKQK([γGlu-Stearoyl])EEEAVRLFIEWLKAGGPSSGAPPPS-NH2 [SEQ ID NO: 7]  EC50 hGlucagon-R (cAMP formation)           nM      0.0058

Next binder, please.
Quick note, EC50 hGlucagon-R (cAMP formation) for H[Aib]QGTFTSDLSKQK([γGlu-Stearoyl])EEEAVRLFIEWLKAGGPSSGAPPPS-NH2 [SEQ ID NO: 6] landed at 0.309
